targetUnderTest: Biotinylated recombinant human CD3εδ (Acro Biosystems, CDD-H82W6) (human) (UniProt P07766)
Sequence (P07766 23-126, stated change not applied, chain 1 of 2): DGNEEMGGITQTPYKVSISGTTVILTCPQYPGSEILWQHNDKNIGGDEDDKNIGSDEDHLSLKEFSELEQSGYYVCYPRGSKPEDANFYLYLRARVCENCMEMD
Sequence (P04234 22-105, stated change not applied, chain 2 of 2, further chain): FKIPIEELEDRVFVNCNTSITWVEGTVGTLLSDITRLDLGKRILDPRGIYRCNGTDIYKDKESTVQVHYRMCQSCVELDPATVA
assayProtocol: Octet BLI, biotinylated CD3εδ on streptavidin sensors, 1:1 model
Provide the reported kon of each item.
Numbers only, in M⁻¹ s⁻¹.

Consider the following illustrative entries.
binder	unitAbbrev	kon
EGFR-CD3 DuetMab with anti-CD3 variant AZ Vκ 26 + AZ VH E82 (bispecific antibody, part only; not given: anti-EGFR arm, constant regions, V domains shown, not shown: another chain or arm of the molecule; a dimerising Fc or GST; small tags and cut ends) VH: EVQLVESGGALVKPGGSLRLSCAASGFTFTEAWMHWVRQAPGKQLEWVAQIKDRSQTYATYYAESVKGRFTISRDDSKNTLYLQMNSLKTEDTAVYYCRGVYYANTPFDYWGQGTLVTVSS VL: DIVMTQSPLSLPVTPGEPASISCRSSQSLVHNTGNTYLSWYLQKPGQSPQSLIYKVSNRASGVPDRFSGSGSGTDFTLKISRVEAEDVGVYYCGQGTQAPFSFGSGTKVEIK	M⁻¹ s⁻¹	7330
EGFR-CD3 DuetMab with anti-CD3 variant AZ Vκ 29 + AZ VH E75 (bispecific antibody, part only; not given: anti-EGFR arm, constant regions, V domains shown, not shown: another chain or arm of the molecule; a dimerising Fc or GST; small tags and cut ends) VH: EVQLVESGGALVKPGGSLRLSCAASGFTFTEAWMHWVRQAPGKQLEWVAQIKDRSQTYATYYAESVKGRFTISRDDSKNTLYLQMNSLKTEDTAVYYCRGVYYANAPFDYWGQGTLVTVSS VL: DIVMTQSPLSLPVTPGEPASISCRSSQSLVHNTGNTYLSWYLQKPGQSPQSLIYKVSNRASGVPDRFSGSGSGTDFTLKISRVEAEDVGVYYCGQGTQFPFTFGSGTKVEIK	M⁻¹ s⁻¹	18200

Reported kon for EGFR-CD3 DuetMab with anti-CD3 variant AZ Vκ 29 + AZ VH R79 (bispecific antibody, part only; not given: anti-EGFR arm, constant regions, V domains shown, not shown: another chain or arm of the molecule; a dimerising Fc or GST; small tags and cut ends) VH: EVQLVESGGALVKPGGSLRLSCAASGFTFTRAWMHWVRQAPGKQLEWVAQIKDRSQTYATYYAESVKGRFTISRDDSKNTLYLQMNSLKTEDTAVYYCRGVYYAVTPFDYWGQGTLVTVSS VL: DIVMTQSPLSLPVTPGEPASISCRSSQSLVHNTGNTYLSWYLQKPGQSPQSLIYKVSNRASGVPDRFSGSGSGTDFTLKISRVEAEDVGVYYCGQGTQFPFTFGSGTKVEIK : what is it?
55500

Data provenance: patent US20250019438A1
